From: patent US20050101595A1

assayed.system: CDK2/Cyclin A (Homo sapiens, UniProt P24941)
experiment: Inhibition of CDK2/Cyclin A Retinoblastoma Kinase Activity
Assay type: biochemical
test.parameters: 0.03 μM compound; Table 3
endpoint: CDK2 % Inhibition at 0.03 μM (%)

(1) CCc1ccc(S(=O)(=O)N2CCC(Nc3nc(N)c(C(=O)c4c(F)cccc4F)s3)CC2)cc1 [Example P30]
(2) Nc1nc(NC2CCN(S(=O)(=O)c3ccc(Sc4ccncc4)cc3)CC2)sc1C(=O)c1c(F)cccc1F [Example P87]
Input line: // returns 1 or 2 , whichever has the lower CDK2 % Inhibition at 0.03 μM // return label of chosen record
Output line: 2

(I) Nc1nc(NC2CCN(S(=O)(=O)c3c(Cl)nc4sccn34)CC2)sc1C(=O)c1c(F)cccc1F [Example P79]
(II) Nc1nc(NC2CCN(S(=O)(=O)c3cccc(Cl)c3Cl)CC2)sc1C(=O)c1c(F)cccc1F [Example P39]
(III) Nc1nc(NC2CCN(S(=O)(=O)c3c(Cl)cc(C(F)(F)F)cc3Cl)CC2)sc1C(=O)c1c(F)cccc1F [Example P82]
Input line: Sort these compounds on CDK2 % Inhibition at 0.03 μM so the largest reading comes first. Please reply with the labels ordered as requested. Many thanks.
Output line: I, II, III

(1) CN(C)S(=O)(=O)N1CCC(Nc2nc(N)c(C(=O)c3c(F)cccc3F)s2)CC1 [Example P7]
(2) Nc1nc(NC2CCN(S(=O)(=O)c3ccc(CBr)cc3)CC2)sc1C(=O)c1c(F)cccc1F [Example P68]
Input line: Param pair: 1 , 2 . Output: the one whose CDK2 % Inhibition at 0.03 μM is numerically greater. Mark your selection by writing its label.
Output line: 2

(A) Nc1nc(NC2CCN(S(=O)(=O)c3ccc(Br)cc3)CC2)sc1C(=O)c1c(F)cccc1F [Example P12]
(B) Nc1nc(NC2CCN(S(=O)(=O)c3cc(OCC(F)(F)F)ccc3OCC(F)(F)F)CC2)sc1C(=O)c1c(F)cccc1F [Example P54]
Input line: Could you kindly indicate whether A or B has the higher CDK2 % Inhibition at 0.03 μM value? Returns: label corresponding to the selected item.
Output line: A

(1) Nc1nc(NC2CCN(S(=O)(=O)c3ccc(F)cc3)CC2)sc1C(=O)c1c(F)cccc1F [Example P13]
(2) N#Cc1cccc(S(=O)(=O)N2CCC(Nc3nc(N)c(C(=O)c4c(F)cccc4F)s3)CC2)c1 [Example P77]
Input line: Just tell me: smaller CDK2 % Inhibition at 0.03 μM value, 1 or 2 ? Write down the label of the entry you select.
Output line: 2
(2: 19%, 1: 75%)

(1) Nc1nc(NC2CCN(S(=O)(=O)c3ccc(S(=O)(=O)c4ccc(C(F)(F)F)cn4)s3)CC2)sc1C(=O)c1c(F)cccc1F [Example P43]
(2) COc1ccc(C)cc1S(=O)(=O)N1CCC(Nc2nc(N)c(C(=O)c3c(F)cccc3F)s2)CC1 [Example P59]
Input line: Hey, which is lower on measured CDK2 % Inhibition at 0.03 μM, 1 or 2 ? Answer with the label corresponding to your selection.
Output line: 2
